- Tested on: BT-474
- Test: drug sensitivity score (DSS) (DSS (dimensionless)); higher = more sensitive; extreme values may be limits of the assay
- Measurement parameters: 4-OH-tamoxifen in medium 0 µM; 72 h
# drug sensitivity score >= 0.6 gives criterion met, anything below gives criterion not met

Examples from the recorded data:
COc1ccc(-c2cc3c(C)nc(N)nc3n([C@H]3CC[C@H](OCCO)CC3)c2=O)cn1    criterion met
Cc1[nH]c2ccccc2c1CCNCc1ccc(/C=C/C(=O)NO)cc1    criterion met
CC(C)C[C@@H](C(=O)N[C@H](C(=O)OC1CCCC1)c1ccccc1)[C@H](O)C(=O)NO    criterion met
COc1cccc2c1C(=O)c1c(O)c3c(c(O)c1C2=O)C[C@@](O)(C(C)=O)C[C@@H]3O[C@H]1C[C@H](N)[C@H](O)[C@H](C)O1    criterion met

[in] Is it the case that Clc1ccc(C(c2ccccc2Cl)C(Cl)Cl)cc1 (configuration not stated) has drug sensitivity score reaching or exceeding 0.6?
[out] criterion not met

[in] Hello, I need to know if `CCc1c2c(nc3ccc(OC(=O)N4CCC(N5CCCCC5)CC4)cc13)-c1cc3c(c(=O)n1C2)COC(=O)[C@]3(O)CC` has measured drug sensitivity score not below 0.6. Thanks!
[out] criterion not met
